TARGET_OR_SYSTEM: T1, human PD-L1 on cell strain HEK293T/hPD-L1 (human, UniProt Q9NZQ7 19-290)
T1 construct: whole, on cells
T1 sequence (Q9NZQ7 19-290): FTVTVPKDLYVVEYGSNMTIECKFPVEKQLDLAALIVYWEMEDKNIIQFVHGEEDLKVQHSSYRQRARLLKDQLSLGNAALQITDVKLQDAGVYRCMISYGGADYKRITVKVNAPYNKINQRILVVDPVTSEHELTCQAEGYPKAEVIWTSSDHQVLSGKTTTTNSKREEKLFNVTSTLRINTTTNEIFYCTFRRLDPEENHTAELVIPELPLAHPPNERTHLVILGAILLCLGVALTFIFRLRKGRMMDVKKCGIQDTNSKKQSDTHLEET
MEASUREMENT_DESCRIPTION: flow cytometry on HEK293T/hPD-L1, 10 µg/mL, anti-human IgG Fc (FITC)
QUANTITY_NAME: binding result

| BINDER | REPORTED_RESULT |
| --- | --- |
| anti-human PD-L1 nanobody h_Nb26 (Fc fusion, not shown: Fc of human IgG1 from vector pFUSE-hIgG1-Fc) DVQLQESGGGLVQPGGSLRLSCAAPGSIFRINAMGWYRQAPGKQRELVAAITSGGSTNYADSVQGRFTISRDNAKNTVYLQMNSLKPEDTAVYYCNVERRRPPHYYSDYDFDWGQGTQVTVSS | binds |
| anti-human PD-L1 nanobody h_Nb1 (Fc fusion, Cloned into pFUSE-mIgG2b-Fc and pFUSE-hIgG1-Fc; not shown: Fc of human IgG1 from vector pFUSE-hIgG1-Fc) DVQLQESGGGLVQPGGSLRLSCAASGFTFSSYAMSWVRQAPGKGLEWVSDINSGGDNTDYADSVKGRFTISRDNAKNTLYLQMNSLKPEDTAVYYCARGPKLCFSSWGQGTQVTVSS | binds |
| anti-human PD-L1 nanobody h_Nb13 (Fc fusion, not shown: Fc of human IgG1 from vector pFUSE-hIgG1-Fc) DVQLQESGGGLVQPGGSLRLSCAASGSIFSINAMGWYRQAPGKSRELVAAITSGGSTNYADSVKGRFTISRDTAKNTVYLLMNSLEPEDTAVYYCNVERRRPPHYLSEYDFDWGQGTQVTVSS | binds |
| anti-human PD-L1 nanobody h_Nb12 (Fc fusion, not shown: Fc of human IgG1 from vector pFUSE-hIgG1-Fc) DVQLQESGGGLVQAGGSLRLSCAASGRTFSSRAMGWFRQAPGKEREFVAAISGSGRNTYYADSVKGRFTISRDNAKNSVNLQMNSLKPEDTAVYYCNAAGGGITIATMTQRTQYDYWGQGTQVTVSS | binds |
